Values from ChEMBL document CHEMBL4334467

# TARGET OR SYSTEM: Polymerase acidic protein (Influenza A virus (A/Puerto Rico/8/1934(H1N1)), UniProt P03433)
# ASSAY DETAILS: Inhibition of Influenza A virus (A/WSN/1933(H1N1)) CEN using m7G[5']-ppp-[5'] [m2'-O]GAA UAU(-Cy3) GCAUCACUAGUAAGCUUUGCUCUA(-BHQ2)-3' as substrate measured after 60 mins by fluorescence assay
Listing of entries alongside the reported IC50.
ASSAY ENDPOINT: IC50 (nM)

MOLECULAR STRING: CCOC(=O)c1cn2c(c(O)c1=O)C(=O)N(CCOC)C[C@@H]2C(c1ccccc1)c1ccccc1
TARGET OR SYSTEM: Polymerase acidic protein (Influenza A virus (A/Puerto Rico/8/1934(H1N1)), UniProt P03433)
ASSAY ENDPOINT: IC50
REPORTED VALUE: 298
//
MOLECULAR STRING: COCCN1C[C@H](C(c2ccccc2)c2ccccc2)n2cc(N)c(=O)c(O)c2C1=O
TARGET OR SYSTEM: Polymerase acidic protein (Influenza A virus (A/Puerto Rico/8/1934(H1N1)), UniProt P03433)
ASSAY ENDPOINT: IC50
REPORTED VALUE: 358
//
MOLECULAR STRING: CNC(=O)c1cn2c(c(O)c1=O)C(=O)N(CCOC)C[C@@H]2C(c1ccccc1)c1ccccc1
TARGET OR SYSTEM: Polymerase acidic protein (Influenza A virus (A/Puerto Rico/8/1934(H1N1)), UniProt P03433)
ASSAY ENDPOINT: IC50
REPORTED VALUE: 1590
//
MOLECULAR STRING: COCCN1C[C@H](C(c2ccccc2)c2ccccc2)n2ccc(=O)c(O)c2C1=O
TARGET OR SYSTEM: Polymerase acidic protein (Influenza A virus (A/Puerto Rico/8/1934(H1N1)), UniProt P03433)
ASSAY ENDPOINT: IC50
REPORTED VALUE: 115
//
MOLECULAR STRING: COCCN1C[C@H](C(c2ccccc2)c2ccccc2)n2cc(C(=O)O)c(=O)c(O)c2C1=O
TARGET OR SYSTEM: Polymerase acidic protein (Influenza A virus (A/Puerto Rico/8/1934(H1N1)), UniProt P03433)
ASSAY ENDPOINT: IC50
REPORTED VALUE: 47.8
//
MOLECULAR STRING: COCCN1C[C@H](CCc2ccccc2)n2cc(C(=O)O)c(=O)c(O)c2C1=O
TARGET OR SYSTEM: Polymerase acidic protein (Influenza A virus (A/Puerto Rico/8/1934(H1N1)), UniProt P03433)
ASSAY ENDPOINT: IC50
REPORTED VALUE: 1350
//
MOLECULAR STRING: CC(C)N1CN(C(c2ccccc2)c2ccccc2)n2ccc(=O)c(O)c2C1=O
TARGET OR SYSTEM: Polymerase acidic protein (Influenza A virus (A/Puerto Rico/8/1934(H1N1)), UniProt P03433)
ASSAY ENDPOINT: IC50
REPORTED VALUE: 286
//
MOLECULAR STRING: COCCN1CN(Cc2ccc(F)cc2)n2cc(C(=O)O)c(=O)c(O)c2C1=O
TARGET OR SYSTEM: Polymerase acidic protein (Influenza A virus (A/Puerto Rico/8/1934(H1N1)), UniProt P03433)
ASSAY ENDPOINT: IC50
REPORTED VALUE: 419
//
MOLECULAR STRING: COCCN1C[C@H](c2ccccc2)n2cc(C(=O)O)c(=O)c(O)c2C1=O
TARGET OR SYSTEM: Polymerase acidic protein (Influenza A virus (A/Puerto Rico/8/1934(H1N1)), UniProt P03433)
ASSAY ENDPOINT: IC50
REPORTED VALUE: 27800
//
MOLECULAR STRING: COCCN1CN(C(c2ccccc2)c2ccccc2)n2ccc(=O)c(O)c2C1=O
TARGET OR SYSTEM: Polymerase acidic protein (Influenza A virus (A/Puerto Rico/8/1934(H1N1)), UniProt P03433)
ASSAY ENDPOINT: IC50
REPORTED VALUE: 103
//
MOLECULAR STRING: COCCN1CN(C(c2ccccc2)c2ccccc2)n2cc(C(=O)O)c(=O)c(O)c2C1=O
TARGET OR SYSTEM: Polymerase acidic protein (Influenza A virus (A/Puerto Rico/8/1934(H1N1)), UniProt P03433)
ASSAY ENDPOINT: IC50
REPORTED VALUE: 116
//
MOLECULAR STRING: CC(C)N1C[C@H](C(c2ccccc2)c2ccccc2)n2ccc(=O)c(O)c2C1=O
TARGET OR SYSTEM: Polymerase acidic protein (Influenza A virus (A/Puerto Rico/8/1934(H1N1)), UniProt P03433)
ASSAY ENDPOINT: IC50
REPORTED VALUE: 239
//
MOLECULAR STRING: COCCN1C[C@H](C(c2ccccc2)c2ccccc2)n2cc(C)c(=O)c(O)c2C1=O
TARGET OR SYSTEM: Polymerase acidic protein (Influenza A virus (A/Puerto Rico/8/1934(H1N1)), UniProt P03433)
ASSAY ENDPOINT: IC50
REPORTED VALUE: 281
//
MOLECULAR STRING: COCCN1C[C@H](C(C)C)n2cc(C(=O)O)c(=O)c(O)c2C1=O
TARGET OR SYSTEM: Polymerase acidic protein (Influenza A virus (A/Puerto Rico/8/1934(H1N1)), UniProt P03433)
ASSAY ENDPOINT: IC50
REPORTED VALUE: 2990
//
MOLECULAR STRING: CN1C[C@H](C(c2ccccc2)c2ccccc2)n2ccc(=O)c(O)c2C1=O
TARGET OR SYSTEM: Polymerase acidic protein (Influenza A virus (A/Puerto Rico/8/1934(H1N1)), UniProt P03433)
ASSAY ENDPOINT: IC50
REPORTED VALUE: 80.4
//
MOLECULAR STRING: COCCN1C[C@H](CC(C)C)n2cc(C(=O)O)c(=O)c(O)c2C1=O
TARGET OR SYSTEM: Polymerase acidic protein (Influenza A virus (A/Puerto Rico/8/1934(H1N1)), UniProt P03433)
ASSAY ENDPOINT: IC50
REPORTED VALUE: 9310
//
MOLECULAR STRING: COCCN1C[C@H](C(c2ccccc2)c2ccccc2)n2cc(OC)c(=O)c(O)c2C1=O
TARGET OR SYSTEM: Polymerase acidic protein (Influenza A virus (A/Puerto Rico/8/1934(H1N1)), UniProt P03433)
ASSAY ENDPOINT: IC50
REPORTED VALUE: 110
//
MOLECULAR STRING: COCCN1C[C@@H](Cc2ccccc2)n2cc(C(=O)O)c(=O)c(O)c2C1=O
TARGET OR SYSTEM: Polymerase acidic protein (Influenza A virus (A/Puerto Rico/8/1934(H1N1)), UniProt P03433)
ASSAY ENDPOINT: IC50
REPORTED VALUE: 27400
//
MOLECULAR STRING: COCCN1C[C@H](Cc2ccccc2)n2cc(C(=O)O)c(=O)c(O)c2C1=O
TARGET OR SYSTEM: Polymerase acidic protein (Influenza A virus (A/Puerto Rico/8/1934(H1N1)), UniProt P03433)
ASSAY ENDPOINT: IC50
REPORTED VALUE: 241
//
MOLECULAR STRING: CN1CN(C(c2ccccc2)c2ccccc2)n2ccc(=O)c(O)c2C1=O
TARGET OR SYSTEM: Polymerase acidic protein (Influenza A virus (A/Puerto Rico/8/1934(H1N1)), UniProt P03433)
ASSAY ENDPOINT: IC50
REPORTED VALUE: 164
//
MOLECULAR STRING: COCCN1CCn2cc(C(=O)O)c(=O)c(O)c2C1=O
TARGET OR SYSTEM: Polymerase acidic protein (Influenza A virus (A/Puerto Rico/8/1934(H1N1)), UniProt P03433)
ASSAY ENDPOINT: IC50
REPORTED VALUE: 68600
//
MOLECULAR STRING: O=C1c2c(O)c(=O)ccn2N(C(c2ccccc2)c2ccccc2)CN1Cc1ccco1
TARGET OR SYSTEM: Polymerase acidic protein (Influenza A virus (A/Puerto Rico/8/1934(H1N1)), UniProt P03433)
ASSAY ENDPOINT: IC50
REPORTED VALUE: 588
